- Test method notes: yeast display, Sf9 membrane polyspecificity reagent, FACS + sequencing; frameworks hold sequencing errors
Test readout: polyreactivity (PSR sort gate)

QVQLVESGGGLVQAGGSLRLSCAASGRTFFHNPMGWYRQAPGKERELVAAISSGGGTYADSVKGRFTISRDNAKNTVYLQINSLKPEDTAVYYCAATLYNTEDDYWGQGTQVTVSS : low polyreactivity
QVQLVESGGGLVQAGGSLRLSCAASGSIFYWYAMGWYRQAPGKERELVAAITYSGDRTYYADSVKGRFTISRDNAKNTVYLQMNSLKPEDTAVYYCAKDRGSGPLDYWGQGTQVTVSS : low polyreactivity
QVQLVESGGGLVQAGGSLRLSCAASGRIFYYYVMGWYRQAPGKERELVATITKRGGDTYYADSVKGRFTISRDNAKNTVYLQMNSLKPEDTAVYYCAAVYLYYSRSDLYDYWGQGTQVTVSS : low polyreactivity
QVQLVESGGGLVQAGGSLRLSCAASGRIFRYYAMGWYRQAPGKERELVAAISYSTGGTYYADSVKGRFTISRDNAKNTVYLQMNSLIPEDTAVYYCAARGPLDRYGYWGQGTQVTVSS : high polyreactivity
QVQLQESGGGLVKAGGSLRLSCAASGSISNSAAMGWYRQAPGKERELVVSIGHGASSNYADSVKGRFTISRDNAKNTVYLQMNSLKPEDTAVYYCAAYPGFLDGFFYWGQSTQVTVSS : high polyreactivity

====

- Test method notes: yeast display, Sf9 membrane polyspecificity reagent, FACS + sequencing; frameworks hold sequencing errors
Test readout: polyreactivity (PSR sort gate)

HGQLVESGGGLVQAGGSLRLSCAASGSHLSNYAMGWYREAPGKERELVAAISLSVGSTYYADSVKGRFTISRDNAKNTVYLQMNSLKPEDTAVYYCAADDFYSGPFRGDYWGQGTQVTVSS : low polyreactivity
QVQLVESGGGLVQAGGSLRLSCAASGRIFVANAMGWYRQAPGKERELVAAISSSGSTNYADSVKGRFTISRDNAKNTVYLQMNSLKPEDTAVYYCAKQHLSTGSWFDPFEMDYWGQGTQVTVSS : low polyreactivity
QVQVVESGGGLVKAGGSLRLSCAASGGTFLINAMGWYRQAPGKERELVATITSGGTTYYADSVKGRFTISRDNAKNTVYLQMNSLKPEDTAVYYCATRGKGRYGYDSWGQGTQVTVSS : low polyreactivity

====

- Test method notes: yeast display, Sf9 membrane polyspecificity reagent, FACS + sequencing; frameworks hold sequencing errors
Test readout: polyreactivity (PSR sort gate)

QVQIVESGAGLVQAGGSLRISCAPSGLTFGYYAMGWYRQAPGKERELVAAISSSGVNTYYADSVKGRFTISRDNAKNTVYLQMNSLKPEDTAVYYCNTVPKPWYSWKYAYDYWGHGTQVTVSS : high polyreactivity
QVQLVESGGGLVQAGGSLRFSCSASGRTFLIYAMGWYRQAPGKARELVAAINFSGGNTYYADSVKGRFTISRDNAKNTVYLQMNSLKPEDTAVYYCAAGVYSFRYDYWGQGTQVTVSS : low polyreactivity
QVQLVESGGGLVQAGGSLRLSCAASGRIFYGNTMGWYRQAPGKERELVAAITIGDSTNYADSVKGRFTISRDNAKNTVYLQMNSLKPEDTEVYFCAKRNWWGYYKYDYWGQGTQVTVSS : low polyreactivity
QVQLVESGGGLVQAGGSLRLSCAASGNAMGWYRQAPGKERELVAAITYGGTTTYYADSVKGRFTISRDNAKNTVYLQMNSLKPEDTAVYYCAADYVFVATPLRYDYWGQGTQVTVSS : low polyreactivity
QVQLQESGGGLVQAGGSLRLSCAASGSIFDSTFMGWYRQAPGKERELVAGISYGTITYYADSVKGRFTISRDNAKHRVSAEEQPESGRYRGVLLRGYPAGQLFLACWGQGTQVTESS : high polyreactivity
